Hello, the source for this data is ChEMBL document CHEMBL1201862, in case you need it.

System: SNB-19
Test: NCI tumour cell line growth inhibition, 48 h
Activity calls are given as the source filed them. Rule as the data show it: active = GI50 up to about 1.1 µM and inactive = higher.
Respond using exactly one of the listed classes: active, inactive

Examples from the recorded data:
CCCCC[C@@H]1OCO[C@@]2(C)/C=C(C)\C=C/C(=O)O[C@H]([C@@H](C)[C@@H](O)[C@H](C)[C@@]3(O)C[C@@H](O[C@H]4C[C@@H](O)[C@H](O)[C@@H](C)O4)[C@H](C)[C@@H](C)O3)[C@@H](OC)/C=C\C=C(\C)C[C@@H]1[C@@H]2O (stereo in doubt)    active
CC(C)(C)OC(=O)N[C@@H](Cc1ccccc1)C(=O)N1CC[C@@H](C(=O)N2[C@H]3CC4CC[C@@]3(CS2(=O)=O)C4(C)C)N1    inactive
Cc1cc(C)c(C#N)c(SC(=S)NC(=O)c2ccccc2)n1    inactive
CCOC(=O)N1C/C(=C\c2ccc(N(C)C)cc2)C(=O)/C(=C/c2ccc(N(C)C)cc2)C1    inactive
C=CC[C@@H]1C(=O)[C@@]2(O[Si](C(C)C)(C(C)C)C(C)C)CC[C@@H]1C[C@H]2NC(=O)OCC(Cl)(Cl)Cl    inactive

Prompt: Check the results log: what was the call for CN(C)C1(N(C)C)Oc2c(c(=O)n(C)c(=O)n2C)C(c2ccc(C(F)(F)F)cc2)C1(F)F (stereo unspecified) ?
Response: inactive
